# measured-target: T1, SARS-CoV-2 spike receptor binding domain (RBD) (SARS-CoV-2, UniProt P0DTC2 319-541)
# T1 construct: also called SARS-CoV RBD
# protocol-text: RBD/ACE2 competition; RBD binding to ACE2 on HEK-293 cells

binder	ACE2 Inhibition (%)
SARS2-1E2_f3 (antibody, V domains shown, also called antibody number 4) VH: QVQLVQSGAEVKKPGASVKVSCKASGYTFTSYDITWVRQATGQGLEWMGWMSPNSGNTGYAQKFQGRVTMTRNTSISTAYMELSSLRSEDTAVYYCARFGYGSGALDYYYYGLDVWGQGTTVTVSS VL: EIVLTQSPGTLSLSPGERATLSCRASQSVRSSHFAWYQQKPGQAPRLLIYGASSRATGIPDRFSGSGSGTDFTLTISRLEPEDFAVCYCQQYGSSPITFGQGTRLEIK	86
SARS2-9C6_f3 (antibody, V domains shown, also called antibody number 10) VH: QVQLVQSGAEVKKPGASVKVSCKASGYTFTSYDITWVRQATGQGLEWMGWMSPKSGNTGYAQKFQGRVTMTRNTSISTAYMELSSLRSEDTAVYYCARFGYGSGALDYYYYGLDVWGQGTTVTVSS VL: EIVLTQSPGTLSLSPGERATLSCRASQSVRSSHLAWYRQKPGQAPRLLIYGASSRATGIPDRFSGRGSGTDFTLTISRLEPEDFAVYYCQQYNSSPITFGQGTRLEIK	85
SARS2-7C10_f3 (antibody, V domains shown, also called antibody number 8) VH: QVQLVQSGAEVKKPGASVKVSCKASGYTFTSYDITWVRQATGQGLEWMGWMSPNSGNTGYAQKFQGRVTMTRNTSISTAYMELRSLRSEDTAVYYCARFGYGSGALDYYYYGLDVWGQGTTVTVSS VL: EIVLTQSPGTLSLSPGERATLSCRASQSVRSSHLAWSQQKPGQAPRLLIYGASSRATGIPDRFSGSGSGTDFTLTISRLEPEDFAVYYCQQFGSSPITFGQGTRLEIK	85
